Kindly supply the reported growth inhibition values for the records listed here.
assayComment: NCI Yeast Anticancer Drug Screen. Data for the rad50 strain (AID 155);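 further: 0% = growth of vehicle-only cultures of the same strain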
appliedConditions: S. cerevisiae rad50 strain growth inhibition; at 50.0 µM; stronger effect = higher value
Description: Growth inhibition of yeast strains with defined genetic alterations is measured as a screen for potential anti-cancer activity. Selected strains with alterations in DNA damage repair or cell cycle control were exposed to compounds and growth inhibition was measured relative to vehicle treated controls. The strain used in this assay is rad50
The panel holds about 79,000 compounds, 15% with a hit somewhere; the sample as a whole holds those more often.
The response must be a number in % with no trailing unit.

Tell us which growth inhibition value is on record for O=c1[nH]c(=O)n(C2OC(CO)C(O)C2O)cc1OCc1ccccc1 (configuration not stated)
-31.8

Tell us which growth inhibition value is on record for NC(=O)Cc1c(F)c(F)c(F)c(F)c1F
9.95

Tell us which growth inhibition value is on record for Cc1cc(OCCCC(=O)O)ccc1Cl
51.8

Tell us which growth inhibition value is on record for C/C(=N\NC(=O)c1cccnc1)c1cccc(/C(C)=N/NC(=O)c2cccnc2)n1.CC(=O)[O-].CC(=O)[O-].[Zn+2]
-5.45

Tell us which growth inhibition value is on record for O=C(NCCCCCCNC(=O)Oc1ccccc1F)Oc1ccccc1F
-13.6

Tell us which growth inhibition value is on record for N#C/C(=C/c1cccc([N+](=O)[O-])c1)C(=O)O
38

Tell us which growth inhibition value is on record for O=C(O)c1cc(O)[nH]c(=O)c1
-12

Tell us which growth inhibition value is on record for CC(NS(=O)(=O)c1cccc(C(=O)O)c1)c1ccccc1 (configuration not stated)
10.3

Tell us which growth inhibition value is on record for NC(=O)C1C2CC3C(C2)C31 (configuration not stated)
2.9

Tell us which growth inhibition value is on record for [O-]c1on[n+](-c2ccccc2)c1CN1CCOCC1
-8.2

Tell us which growth inhibition value is on record for CNC(=O)NC1C(O)COC(OC)C1O (configuration not stated)
-2.65

Tell us which growth inhibition value is on record for COC(=O)C(=O)c1cc(C)n(C)c(=O)c1CN1C(=O)c2ccccc2C1=O
-14.2

====

assayComment: NCI Yeast Anticancer Drug Screen. Data for the bub3 strain (AID 167)
appliedConditions: S. cerevisiae bub3 mutant strain, at 50.0 µM, stronger effect = higher value
This is part of a sample that, as a whole, favours compounds with a hit. Of some 79,000 tested, about 15% had one in any assay.
testReadout: growth inhibition (%)
The response must be a number in % with no trailing unit.

Tell us which growth inhibition value is on record for Cc1cc(C)c2c(c1)C(=O)c1ccccc1C2=O
30.9

Tell us which growth inhibition value is on record for OCC1OC(n2cnc3[nH]cnc(=S)c32)C(O)C1O (stereo not drawn)
-6.35

Tell us which growth inhibition value is on record for CCOC(=O)COc1ccc(Cl)cc1C
6.8

Tell us which growth inhibition value is on record for CC(=O)N(C(=O)CC(=O)NN)c1ccc(Cl)cc1
6.95

Tell us which growth inhibition value is on record for O=C(Nc1cc(NC(=O)n2nnc3ccccc32)c(Br)cc1Br)n1nnc2ccccc21
2.15

Tell us which growth inhibition value is on record for O=Cc1cccs1
8.3

Tell us which growth inhibition value is on record for COc1cc(C=O)ccc1OC(C)=O
-10.6

Tell us which growth inhibition value is on record for OC(CI)C1OCOC(CI)C1O (stereo not drawn)
-3.75

Tell us which growth inhibition value is on record for Cc1nc2n(c1C(N)=O)CCS2
-10.7

Tell us which growth inhibition value is on record for Cc1ccc(S(=O)OCC23CC4CC(CC(C4)C2)C3)cc1 (stereo not drawn)
-5.55

Tell us which growth inhibition value is on record for O=[N+]([O-])C(C(Cl)=C(Cl)Cl)=C(n1nnc2ccccc21)n1nnc2ccccc21
19

Tell us which growth inhibition value is on record for Cn1c(=O)c2c(nc(N)n2C)n(C)c1=O
-33.6

Tell us which growth inhibition value is on record for c1ccc(B2OC(c3ccccc3)=C(c3ccccc3)O2)cc1
-0.45

====

Kindly supply the reported growth inhibition values for the records listed here.
assayComment: NCI Yeast Anticancer Drug Screen. Data for the sgs1 mgt1 strain (AID 161);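 further: 0% = growth of cultures given vehicle only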
appliedConditions: S. cerevisiae sgs1 mgt1 strain, at 50.0 µM, stronger effect = higher value
The panel holds about 79,000 compounds, 15% with a hit somewhere; the sample as a whole holds those more often.
The response must be a number in % with no trailing unit.

Tell us which growth inhibition value is on record for Oc1ccc2ccccc2c1CNC1CCCCC1
-9.05

Tell us which growth inhibition value is on record for c1ccc(CCc2nccc3ccccc23)cc1
-5.6

Tell us which growth inhibition value is on record for Cc1cccc(NN)c1
7.45

Tell us which growth inhibition value is on record for CC(=O)Oc1ccc(C2OC(=O)c3ccccc3N2C(C)=O)cc1 (configuration not stated)
12.7

Tell us which growth inhibition value is on record for C=C(C)C1CC(=O)C2(C)C(C1)OC(=O)C2C(=O)OCC (configuration not stated)
-8.3

Tell us which growth inhibition value is on record for N#Cc1c(C(F)(F)F)cc(-c2cccs2)nc1SC(C(=O)Nc1c(F)cccc1F)c1ccccc1 (configuration not stated)
23

Tell us which growth inhibition value is on record for Cc1nn2c(-c3ccccc3)cnnc2c1-c1ccccc1
-12.8

Tell us which growth inhibition value is on record for CN(CCOc1ccccc1)Cc1ccccc1
50.7

Tell us which growth inhibition value is on record for CN1CCN(C2CCCc3ccccc3C2=O)CC1 (configuration not stated)
4.75

Tell us which growth inhibition value is on record for O=c1ccc2ccc(-c3cnc(O)[nH]c3=O)oc-2c1
5.35

Tell us which growth inhibition value is on record for Brc1ccc(C2NC(c3ccccc3)c3c(ccc4ccccc34)O2)cc1 (configuration not stated)
90.9

Tell us which growth inhibition value is on record for C=CCn1c(=O)n(CC=C)c(=O)n(CC=C)c1=O
-5.35

====

assayComment: NCI Yeast Anticancer Drug Screen. Data for the mlh1 rad18 strain (AID 175)
appliedConditions: S. cerevisiae mlh1 rad18 strain growth inhibition; at 50.0 µM; stronger effect = higher value
Experimental: Growth inhibition of yeast strains with defined genetic alterations is measured as a screen for potential anti-cancer activity. Selected strains with alterations in DNA damage repair or cell cycle control were exposed to compounds and growth inhibition was measured relative to vehicle treated controls. The strain used in this assay is mlh1 rad18
This is part of a sample that, as a whole, favours compounds with a hit. Of some 79,000 tested, about 15% had one in any assay.
testReadout: growth inhibition (%)
The response must be a number in % with no trailing unit.

Tell us which growth inhibition value is on record for OCc1c(CO)c2cccn2c2c1cnn2-c1ccccc1
11.2

Tell us which growth inhibition value is on record for CC(=O)Nc1ccc(-c2nnc(SCC(=O)Nc3ccc(C)cc3)o2)cc1
-38.3

Tell us which growth inhibition value is on record for O=C(NC(=O)C(Cl)Cl)OC1c2cc(Cl)ccc2-c2c(Cl)cc(Cl)cc21 (stereo unspecified)
99.2

Tell us which growth inhibition value is on record for CC1C(=O)C(c2ccccc2)(c2ccccc2)CC[N+]1(C)C (stereo unspecified)
10.4

Tell us which growth inhibition value is on record for Cc1cn2cc(-c3cccs3)nc2s1
15.1

Tell us which growth inhibition value is on record for Cc1[nH]c2ccccc2c1C1=CC(=O)N(c2ccccc2)C1=O
-7.9

====

Kindly supply the reported growth inhibition values for the records listed here.
assayComment: NCI Yeast Anticancer Drug Screen. Data for the bub3 strain (AID 167)
appliedConditions: S. cerevisiae bub3 mutant strain, at 50.0 µM, stronger effect = higher value
This is part of a sample that, as a whole, favours compounds with a hit. Of some 79,000 tested, about 15% had one in any assay.
The response must be a number in % with no trailing unit.

Tell us which growth inhibition value is on record for CCOC(=O)/C=C(\N=P(c1ccccc1)(c1ccccc1)c1ccccc1)C(F)(F)C(F)(F)C(F)(F)C(F)(F)C(F)(F)F
20.2

Tell us which growth inhibition value is on record for C[N+]1(C)C2CCC1CC(OC(=O)C(O)c1ccccc1)C2 (centres undefined)
-13.8

Tell us which growth inhibition value is on record for CC(C)(C)[N]=[V]([Cl])([Cl])[Cl]
-10.6

Tell us which growth inhibition value is on record for C#CCN1CCCC1
27.7

Tell us which growth inhibition value is on record for O=C(Cn1ccccc1=O)c1ccc(F)cc1
1.7

Tell us which growth inhibition value is on record for CCCCCCCCCCCCCCCCCCCCCCCCCC
-0.05

Tell us which growth inhibition value is on record for O=C(C[n+]1ccncc1)c1ccc2c(c1)CCCC2
46.1

Tell us which growth inhibition value is on record for C[Si](C)(C)C#C[I+]c1ccccc1
8.95

Tell us which growth inhibition value is on record for CC(SC(=S)N1CCOCC1)C(=O)O (centres undefined)
-6.05

Tell us which growth inhibition value is on record for Oc1ccc2ccccc2c1CNC1CCCCC1
29.7

Tell us which growth inhibition value is on record for Cc1c(-c2coc(-c3ccc(Cl)cc3)n2)c(=O)n(-c2ccccc2)n1C
7.4

Tell us which growth inhibition value is on record for CCOP(=O)(CCP(=O)(CCP(=O)(OCC)OCC)CCP(=O)(OCC)OCC)OCC
-1.55

Tell us which growth inhibition value is on record for c1cc(-c2nnc(-c3ccncc3)s2)ccn1
14.5

Tell us which growth inhibition value is on record for CCOC(=O)C(NC(=O)Cc1ccccc1)C(=O)O (centres undefined)
-1.65

Tell us which growth inhibition value is on record for CC(=O)OC1OC(COC(c2ccccc2)(c2ccccc2)c2ccccc2)C(OCc2ccccc2)C(OCc2ccccc2)C1OC(C)=O (centres undefined)
0.45

Tell us which growth inhibition value is on record for CC(C)OC(=O)Oc1ccc(Cl)cc1
-11.8

Tell us which growth inhibition value is on record for O=c1[nH]c2cc(Cl)ccc2nc1/C=C(\O)c1ccc([N+](=O)[O-])cc1
6.55

Tell us which growth inhibition value is on record for Cc1ccc(NC(=O)CN2CCCCC2)cc1
-0.9

Tell us which growth inhibition value is on record for CN(C)C=Nc1ccc(F)cc1
-1.8

Tell us which growth inhibition value is on record for Cn1c(=O)c2c(nc(CCNC(=O)c3ccccc3)n2C)n(C)c1=O
5.6

Tell us which growth inhibition value is on record for C[N+]1(Cc2ccccc2)CCC(=O)CC1
10.9

Tell us which growth inhibition value is on record for Cc1cc(C)c(CN(C)C)c(CC(O)c2ccccc2)c1 (centres undefined)
3.45

Tell us which growth inhibition value is on record for CC(=O)OC1CCC(OC(C)=O)[C@H]2[C@@H]1[C@@H]1S[C@H]2c2ccccc21 (some centres undefined)
12.2

Tell us which growth inhibition value is on record for Cc1cc(C)cc(C(=O)OC2CCCC2)c1
-5.2

Tell us which growth inhibition value is on record for CC(C)=CC1C(COC(=O)c2ccccc2Cl)C1(C)C (centres undefined)
-12.4

Tell us which growth inhibition value is on record for [CH2+][B-]1(C)n2cc(Br)c[n+]2[B-](C)(C)[n+]2cc(Br)cn21
7.1

Tell us which growth inhibition value is on record for O=C1C(Cl)C(c2ccccc2)N1n1cnc2ccccc2c1=O (centres undefined)
3.9

Tell us which growth inhibition value is on record for Cc1ccc(-n2cnc(C(=N)C#N)c2N)cc1
9.55

Tell us which growth inhibition value is on record for CCCCCCCCCCCCCC(=O)OC
-1.4
